The compounds listed here are annotated with their Emax.
test system: MDAMB231; test: CellTiter-Glo cell viability assay, single agents, three days; format: cell-based; details: Homo sapiens, MDA-MB-231, 72 h; MDAMB231, highest dose tested; read-out: Max Inhibition
Answer format: numeric, % implied, no suffix.

- compound: "CCN(CC)Cc1ccc(OCC[C@H]2CC[C@H]3[C@@H]4[C@H](C)Cc5cc(O)ccc5[C@H]4CC[C@]23C)c(OC)c1 [TAS-108]"
  target.entity: "MDAMB231"
  Emax (%): 100
- compound: "CO[C@H]1C[C@@H]2CC[C@@H](C)[C@@](O)(O2)C(=O)C(=O)N2CCCC[C@H]2C(=O)O[C@H]([C@H](C)C[C@@H]2CC[C@@H](O)[C@H](OC)C2)CC(=O)[C@H](C)/C=C(\\C)[C@@H](O)[C@@H](OC)C(=O)[C@H](C)C[C@H](C)/C=C/C=C/C=C/1C [Rapamycin]"
  target.entity: "MDAMB231"
  Emax (%): 95
- compound: "Cc1ccc(NC(=O)c2ccc(CN3CCN(C)CC3)cc2)cc1Nc1nccc(-c2cccnc2)n1 [Imatinib]"
  target.entity: "MDAMB231"
  Emax (%): 91
- compound: "CCN(CC)CCNC(=O)c1c(C)[nH]c(/C=C2\\C(=O)Nc3ccc(F)cc32)c1C [Sunitinib]"
  target.entity: "MDAMB231"
  Emax (%): 99

Note to self: Emax recorded for CS(=O)(=O)CCNCc1ccc(-c2ccc3ncnc(Nc4ccc(OCc5cccc(F)c5)c(Cl)c4)c3c2)o1 [Lapatinib] was 98

Note to self: Emax recorded for Cc1nc(Nc2ncc(C(=O)Nc3c(C)cccc3Cl)s2)cc(N2CCN(CCO)CC2)n1 [Dasatinib] was 82

Note to self: Emax recorded for CO[C@H]1C[C@@H]2CC[C@@H](C)[C@@](O)(O2)C(=O)C(=O)N2CCCC[C@H]2C(=O)O[C@H]([C@H](C)C[C@@H]2CC[C@@H](OCCO)[C@H](OC)C2)CC(=O)[C@H](C)/C=C(\C)[C@@H](O)[C@@H](OC)C(=O)[C@H](C)C[C@H](C)/C=C/C=C/C=C/1C [Everolimus] was 40
